System: HCC-2998 colon
Test name: NCI tumour cell line growth inhibition, 48 h
Class (by TGI) -- bin 1 = under 20 µM, bin 2 = from 20 µM up to 40 µM, bin 3 = 40 µM and over

Illustrative cases are given below, each with its answer.
Challenge: Bin? O=P(O)(O)OP(=O)(O)O
Response given: bin 3

Challenge: Class (by measured TGI) for CN(C)c1cc2c(cc1Sc1nc3c(N)nccc3n1CCNCC(C)(C)C)OCO2
Response given: bin 1

Challenge: State the band of O=S1c2ccccc2N=C(c2ccc3ccccc3c2)CC1c1ccccc1 (stereo not given)
Response given: bin 2

Others:
Challenge: Hey, which category is Nc1nc(N)nc(-c2cnc3ccccc3c2)n1 in, do you know?
Response given: bin 3

Challenge: State the class of the compound shown: C#CCn1c(=O)c(C)cn(/C(=C/C(=O)OCC)C(=O)OCC)c1=O
Response given: bin 2

Challenge: Class (by measured TGI) for CCCCN(CCCC)c1cc(C(=O)CCCCCN)c2ccccc2n1
Response given: bin 1
